system: Staphylococcus haemolyticus 415; assay: MIC, standard broth micro-dilution assay, SH 415; type: cell-based
// reported Minimal Inhibitory Concentration (MIC) SH 415 for each item listed
RECORDED METRIC: Minimal Inhibitory Concentration (MIC) SH 415

MOLECULE	RECORDED VALUE
CC1OC(OC2c3ccc(c(Cl)c3)Oc3cc4cc(c3OC3OC(CO)C(O)C(O)C3OC3CC(C)(NCc5ccc(-c6ccc(Cl)cc6)cc5)C(O)C(C)O3)Oc3ccc(cc3Cl)C(O)C(N)C(=O)NC(CC(N)=O)C(=O)NC4C(=O)NC3C(=O)NC2C(=O)NC(C(=O)O)c2cc(O)cc(O)c2-c2cc3ccc2O)CC(C)(N)C1O (centres unmarked)	1
CC1OC(OC2c3ccc(c(Cl)c3)Oc3cc4cc(c3OC3OC(CO)C(O)C(O)C3OC3CC(C)(NCc5ccc(Cl)cc5)C(O)C(C)O3)Oc3ccc(cc3Cl)C(O)C(N)C(=O)NC(CC(N)=O)C(=O)NC4C(=O)NC3C(=O)NC2C(=O)NC(C(=O)O)c2cc(O)cc(O)c2-c2cc3ccc2O)CC(C)(N)C1O (centres unmarked)	4
